- TARGET_OR_TEST_SYSTEM: human mGluR5A (Homo sapiens, UniProt P41594)
- Construct: expressed in transfected cells; host or cells: CHO (Chinese Hamster Ovary) cells, kept under Puromycin and Zeocin selection
- Sequence (P41594 21-1180 isoform P41594-2 limits assumed): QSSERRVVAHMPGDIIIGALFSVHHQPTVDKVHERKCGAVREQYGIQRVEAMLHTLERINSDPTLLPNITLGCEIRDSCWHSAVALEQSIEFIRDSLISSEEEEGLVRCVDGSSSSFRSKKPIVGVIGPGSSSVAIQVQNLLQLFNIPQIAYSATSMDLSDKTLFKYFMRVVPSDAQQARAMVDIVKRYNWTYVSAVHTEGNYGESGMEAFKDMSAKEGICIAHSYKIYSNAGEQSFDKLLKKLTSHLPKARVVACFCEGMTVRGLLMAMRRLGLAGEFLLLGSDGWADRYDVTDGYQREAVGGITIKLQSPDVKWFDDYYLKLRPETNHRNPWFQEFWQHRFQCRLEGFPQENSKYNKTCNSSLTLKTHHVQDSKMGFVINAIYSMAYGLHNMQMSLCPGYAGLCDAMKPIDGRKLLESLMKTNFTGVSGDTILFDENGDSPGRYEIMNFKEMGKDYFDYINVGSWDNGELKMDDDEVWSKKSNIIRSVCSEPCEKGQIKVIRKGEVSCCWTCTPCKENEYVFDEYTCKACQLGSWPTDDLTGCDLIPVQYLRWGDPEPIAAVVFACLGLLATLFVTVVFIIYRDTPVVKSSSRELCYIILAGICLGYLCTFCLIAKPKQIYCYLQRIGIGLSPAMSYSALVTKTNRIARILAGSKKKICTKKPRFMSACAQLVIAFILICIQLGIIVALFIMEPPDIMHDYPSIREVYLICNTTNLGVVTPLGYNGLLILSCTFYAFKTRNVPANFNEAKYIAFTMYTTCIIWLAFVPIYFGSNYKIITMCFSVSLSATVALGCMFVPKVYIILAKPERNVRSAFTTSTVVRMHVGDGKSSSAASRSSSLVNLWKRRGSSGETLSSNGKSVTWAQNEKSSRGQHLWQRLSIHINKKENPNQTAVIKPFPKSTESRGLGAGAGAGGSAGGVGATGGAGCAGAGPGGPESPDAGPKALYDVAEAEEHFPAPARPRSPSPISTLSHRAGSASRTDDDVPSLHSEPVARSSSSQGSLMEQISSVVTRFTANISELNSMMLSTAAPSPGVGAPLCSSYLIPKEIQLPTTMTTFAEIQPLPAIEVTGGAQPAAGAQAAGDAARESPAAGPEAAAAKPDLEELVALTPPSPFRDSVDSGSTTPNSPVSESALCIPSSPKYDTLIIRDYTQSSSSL
- EXPERIMENT_NOTES: Fluorescent Ca2+ mobilization (FLIPR) assay, potentiation of a sub-threshold (EC20, 300 nM) glutamate response
- Type: cell-based
- EXPERIMENTAL_CONTEXT: CHO cells expressing human mGluR5A; potentiation in the presence of 300 nM glutamate; about/generally; read-out: EC50 for potentiating/enhancing the mGluR5 receptor in the FLIPR assay
- Experimental: The utility of the compounds in accordance with the present invention as positive allosteric modulators of metabotropic glutamate receptor activity, in particular mGluR5 activity, may be readily determined without undue experimentation by methodology well known in the art, including O'Brien et al., Molecular Pharmacology 2003, 64(3) 731-740. […] The day of the experiment, the cells were washed with 37° C. […] The response was then monitored for an additional 3 minutes. […]
EC50 by entry:

Examples with answers:
>>> reading("COc1ccc2c(n1)CC[C@@H]1CC[C@H](c3nc(-c4cc(Cl)c[nH]4)no3)CN1C2=O [Example 13-2]")
"< 1000 nM"
>>> reading("O=C1c2ccc(F)cc2C(F)(F)C[C@@H]2CC[C@H](c3nc(-c4ccc(F)cn4)no3)CN12 (racemic) [Example 20-3]")
"< 1000 nM"

Please examine the following record next.
Observed EC50 on human mGluR5A (Homo sapiens, UniProt P41594) for N#Cc1ccc2c(c1)CCC1CCC(c3nc(-c4cc(Cl)c[nH]4)no3)CN1C2=O (racemic) [Example 18-1] , please.
< 1000 nM
